test system: U-251; assay: NCI tumour cell line growth inhibition, 48 h
Calls of active or inactive are those of the source. No stated cut-off is given here; in the data, active = GI50 up to about 1.1 µM and inactive = higher.
measured.endpoint: GI50

molecule | target.desc | GI50
O=[N+]([O-])c1ccc2nc3ccc([N+](=O)[O-])cn3c2c1 | U-251 | 36 µM (inactive)
CC(=O)Nc1ccc(-c2nc3ccccc3s2)cc1 | U-251 | 27.5 µM (inactive)
CCOC(=O)c1c(N2CCOCC2)[nH]c(=O)c(C(c2ccc(Cl)c([N+](=O)[O-])c2)c2c(O)c(C(=O)OCC)c(N3CCOCC3)[nH]c2=O)c1O | U-251 | 19.6 µM (inactive)
Cc1cccc(C(C)(C)C)c1NC(=O)C(=O)Cc1nc2ccccc2s1 | U-251 | > 100 µM (inactive)
CCOc1cc[n+]([C-](C#N)C#N)cc1 | U-251 | > 100 µM (inactive)

Prompt: Can you look up the measured GI50 of O=C1CCCc2ccc([N+](=O)[O-])c(O)c21 for me?
Completion: 59.3 µM (inactive)

Prompt: Requested read-out: GI50. Entry: O=C1c2ccccc2-c2nnc(-c3ccc([N+](=O)[O-])cc3)cc21
Completion: > 10 µM (inactive)

Prompt: May I ask what GI50 has been recorded for CCOC(=O)c1nc2ccc(C(F)(F)F)cc2nc1NCc1ccc(OC)cc1 ?
Completion: > 100 µM (inactive)

Prompt: Recorded GI50 for O=C(O)CCSC(=O)Nc1cccc2ccccc12 , please?
Completion: > 100 µM (inactive)
